Source of measurements: PubChem BioAssay (NCI)

- System: SK-MEL-5 melanoma
- PROTOCOL TEXT: NCI-60 one-dose screen, 48 h
- TEST SETTINGS: 10 µM unless noted
The panel holds about 83,000 compounds, 20% with a hit somewhere; the sample as a whole holds those more often. Active and inactive are the calls of the source. Rule for the calls: active = growth percent below 10; inactive = the rest.
Respond using exactly one of the listed classes: true (1) = active, false (0) = inactive

Solved entries (count: 10):
Ask: Tell me the recorded outcome of this test for Nc1nc(N)c2cc(Sc3ccc(Cl)cc3)ccc2n1 .
Result: false (0)

Ask: Record request — test call for CCCCn1c(-c2ccc(F)cc2)nc2cc(OC)c(OC)cc2c1=O
Result: false (0)

Ask: Which result was noted for this molecule in the test: O=C1C2=C(C(=O)c3c(O)ccc(O)c31)N(c1ccc(N3CCOCC3)nc1)Cc1ccccc1O2
Result: true (1)

Ask: What was the test verdict on Cc1[nH]n(C(=O)c2ccncc2)c(=O)c1N=Nc1ccc(O)c(C(=O)O)c1 ?
Result: false (0)

Ask: Query: recorded result category for CC(=O)OC1Oc2cc(C)c(C)cc2-c2oc(=O)c(-c3ccc(F)cc3)cc21 (centres undefined) in this test
Result: false (0)

Ask: Test call, this molecule: O=C(C(=O)c1cccnc1)c1cccnc1
Result: false (0)

Ask: Recorded test call requested for O=C(CCCCCCc1nc2ccc(Br)cc2[nH]1)NO
Result: true (1)

Ask: Would you mind telling me which call this test gave O=C(OCc1ccc2c(Br)cc(Br)c(O)c2n1)c1cc2ccccc2[nH]1 ?
Result: true (1)

Ask: Can you look up the reported call for Oc1[nH]c2ccc(Cl)cc2c1/C=c1/ccc2c(c1)N=C(c1ccc(F)cc1)N=2 for me?
Result: false (0)

Ask: How did this test come out for C=C1NC(=O)C(C(C)CC)NC(=O)C2CSCC(NC(=O)CCC(=O)O)C(=O)NC(Cc3ccccc3)C(=O)NC(C)C(=O)NC(CC(C)CC)C(=O)NC(C(=O)NC(Cc3ccccc3)C(=O)N3CCCC3C(=O)N2)C(C)OC(=O)C(CO)NC(=O)C(C(O)COC)N(C)C(=O)C(C(C)C)NC(=O)C(CC(C)CC)NC1=O (centres undefined) ?
Result: true (1)

New cases:
Ask: Each molecule tested received a call. Report the one for Fc1ccc2nc(-c3ccc(-c4noc(-c5ccc(Cl)cc5)n4)cc3)[nH]c2c1 .
Result: false (0)

Ask: Lab log entry: c1ccc(C2=Nc3ccccc3SC2)cc1 — outcome as called in the assay?
Result: false (0)

Ask: Answer briefly: the call reported for CC(C)(C)NC(=O)C(OC(=O)C1CCc2cc(F)ccc2O1)c1ccccc1Cl (centres undefined) in this assay.
Result: false (0)

Ask: Fill in: this test's call for CC(=O)c1ccc(-n2c(-c3cc(-c4ccsc4)n[nH]3)n[nH]c2=S)cc1 is ___
Result: false (0)

Ask: Given COc1ccc(-c2cnc3ccnn3c2-c2cc(OC)c(OC)c(OC)c2)cc1 , state the outcome it received in this test.
Result: false (0)

Ask: Dear all, I need the recorded test outcome for CC(C)CC(NC(=O)OCC1c2ccccc2-c2ccccc21)C(=O)O (centres undefined) , thank you.
Result: false (0)

Ask: Hi, do you know how OC(c1cc(-c2ccc(C(F)(F)F)cc2)nc(-c2ccc(C(F)(F)F)cc2)c1)C1CCCCN1 (centres undefined) came out in this test?
Result: true (1)

Ask: Kindly provide the recorded test outcome for the following molecule: COc1ccc(C(=O)C(CN(C)C)c2ccccc2)cc1 (centres undefined)
Result: false (0)

Ask: Answer briefly: the call reported for COc1ccc(-n2nc(C(=O)NCC(=O)Nc3nc4cc(OC)ccc4s3)c3ccccc3c2=O)cc1 in this assay.
Result: false (0)
